tested on: DAPI; assay: TAG lipid buildup inhibition with viability readout – cell-based, panel, Nile Red and DAPI fluorescence, H9c2, dose response (AID 651630); conditions: H9c2 cells, DAPI nuclear fluorescence (cytotoxicity counter-readout), oleic acid, run 2;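 also: cells exposed to compound overnight before fixation and staining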
readout: IC50 cytotoxicity (DAPI nuclear signal decrease)

> print(dat)
                       smilesrepresentation  targetofassay  observed
1  COC(=O)C1=C(C)N(Cc2ccccc2)C(=NCc2cc(OC)c(OC)c(OC)c2)N[C@H]1c1ccc(Br)cc1           DAPI   > 25 µM
2  CCOC(=O)[C@H]1[C@H]2COc3ccc(Cl)cc3[C@@H]2N2C(=O)c3cc(OC)ccc3NC(=O)[C@@]12C           DAPI   > 25 µM
3      CSc1nc(N(C)NC(=O)c2ccccc2)c2ccccc2n1           DAPI   > 25 µM
4         O=c1cc(-c2ccccc2)[nH]c2ccc(F)cc12           DAPI   > 25 µM
5  Cc1ccc(/C=N/NC(=O)Cc2c[nH]c3ccccc23)c(C)c1           DAPI   > 25 µM

###

system: TAG; test: TAG lipid buildup inhibition with viability readout – cell-based, panel, Nile Red and DAPI fluorescence, H9c2, dose response (AID 651630); conditions: H9c2 cells, Nile Red TAG fluorescence, oleic acid, mean of runs;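 also: cells exposed to compound overnight before fixation and staining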
Calls of active or inactive are those of the source.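 How the source made its calls: active means lipid-stain IC50 at or below a set limit, with nuclear-stain toxicity IC50 at least five times higher; inactive means the rest.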
readout: IC50

compound	readout	observed
CCOc1ccccc1NC(=O)C1CCN(C(=O)NCc2ccccc2)CC1	IC50	> 25 µM (inactive)
CCCCC(CC)C(=O)Nc1cc(C(=O)NCc2ccc(C)cc2)ccc1N1CCC2(CC1)CC(c1ccccc1)=NO2 (stereo not drawn)	IC50	3.47 µM
CS(=O)(=O)c1ccc(C(=O)OCC(=O)N2CCOCC2)cc1[N+](=O)[O-]	IC50	> 25 µM (inactive)
CO/N=C\CC(=O)Nc1ccc(Oc2ccccc2)cc1	IC50	7.97 µM
Cc1ccc(C2C(C=Nc3c(C)n(C)n(-c4ccccc4)c3=O)=C(c3ccccc3)Oc3ccccc32)cc1 (stereo not drawn)	IC50	7.41 µM
CC(C)=CCNc1ncnc2c1c(C#N)cn2C1OC(CO)C(O)C1O (stereo not drawn)	IC50	> 25 µM (inactive)
C=CCC[C@H](Cc1ccc(F)cc1)C(=O)OC[C@H](C)NC(=O)[C@@H](CC=C)CC(=O)N[C@H](CO)Cc1ccccc1	IC50	15.4 µM (inactive)
CC(C)C[C@@H](CNC(=O)OC(C)(C)C)NC(=O)c1nc[nH]c1C(=O)N[C@@H](CC(C)C)C(=O)CNC[C@H](CC(C)C)NC(=O)c1nc[nH]c1C(=O)N[C@@H](Cc1c[nH]c2ccccc12)C(=O)OC(C)(C)C	IC50	5.5 µM

###

system: DAPI; experiment: TAG lipid buildup inhibition with viability readout – cell-based, panel, Nile Red and DAPI fluorescence, H9c2, dose response (AID 651630); settings: H9c2 cells, DAPI nuclear fluorescence (cytotoxicity counter-readout), oleic acid, run 2;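 also: cells exposed to compound overnight before fixation and staining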
compounds and their reported IC50 cytotoxicity (DAPI nuclear signal decrease)
readout: IC50 cytotoxicity (DAPI nuclear signal decrease)

> print(dat)
                                   compound  observed
1  COC(=O)c1ccc(/C=C/c2c(-c3ccsc3)oc3ccc(N4CCOCC4)cc23)cc1   > 25 µM
2  O=C(Nc1ccc(/C=C/c2nc3ccccc3o2)cc1)c1c(F)cccc1F   > 25 µM
3  COCCCNC(=O)C(=O)Nc1ccc2c(c1)N(S(=O)(=O)c1cccs1)CCC2   > 25 µM
4  NC(Cc1ccc(C(F)(F)F)cc1)c1csc(Nc2nncc3ccccc23)n1 (stereo not given)   21.3 µM
5  OC1CC2CCC(C1)N2CCCN1c2ccccc2Sc2ccc(Cl)cc21 (stereo not given)   > 25 µM

###

molecules and their reported IC50 cytotoxicity (DAPI nuclear signal decrease)
tested on: DAPI; assay: TAG lipid buildup inhibition with viability readout – cell-based, panel, Nile Red and DAPI fluorescence, H9c2, dose response (AID 651630); settings: H9c2 cells, DAPI nuclear fluorescence (cytotoxicity counter-readout), oleic acid, mean of runs;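 also: cells exposed to compound overnight before fixation and staining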
The source made the active and inactive calls.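 The calls were made as follows: active = lipid-stain IC50 at or below a set limit, with nuclear-stain toxicity IC50 at least five times higher; inactive = the rest.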
readout: IC50 cytotoxicity (DAPI nuclear signal decrease)

> print(dat)
                                    molecule            observed
 1  Cc1ccc(/C=N/NC(=O)Cc2c[nH]c3ccccc23)c(C)c1  > 25 µM (inactive)
 2                  CCOC(=O)CSc1cccc2cccnc12  > 25 µM (inactive)
 3  O=C(NCCCCCCCN1CCCCCCC1)C(C1CCCCC1)C1CCCCC1  > 25 µM (inactive)
 4  CN(C)c1ccc(NC(=O)CSc2nc3ccccc3c(=O)n2C2CCCCC2)cc1  > 25 µM (inactive)
 5  CC(C)C[C@H](CO)N(Cc1ccccc1)S(=O)(=O)N(Cc1ccccc1)[C@@H](CO)CC(C)C  > 25 µM (inactive)
 6  COc1ccc(-c2nn(-c3ccccc3)cc2/C=C/C(=O)OCC(=O)Nc2ccccc2C#N)cc1  > 25 µM (inactive)
 7  COc1ccc(CC(N)c2csc(NC(=O)NCc3ccccc3)n2)cc1 (stereo not given)  > 25 µM (inactive)
 8  C[C@H](O)C#Cc1ccc2c(c1)O[C@@H](CN(C)Cc1ccc(-c3ccccc3)cc1)[C@H](C)CN([C@@H](C)CO)S2(=O)=O  > 25 µM (inactive)
 9          O=C(Nc1cccc2ncccc12)c1ccc(Cl)cc1  > 25 µM (inactive)
10  O=C(CSc1cccc2cccnc12)Nc1ccc(S(=O)(=O)N2CCOCC2)cc1  > 25 µM (inactive)

###

test system: TAG; assay: TAG lipid buildup inhibition with viability readout – cell-based, panel, Nile Red and DAPI fluorescence, H9c2, dose response (AID 651630); details: H9c2 cells, Nile Red TAG fluorescence, oleic acid, mean of runs;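 also: cells exposed to compound overnight before fixation and staining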
Calls of active or inactive are those of the source.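 Rule for the calls: active = lipid-stain IC50 at or below a set limit, with nuclear-stain toxicity IC50 at least five times higher; inactive = the rest.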
compounds and their reported IC50
readout: IC50

> print(dat)
                                   compound  readout            observed
1  CCC(C)(C)NC(=O)C(c1ccc(OC)cc1)N(Cc1cccs1)C(=O)CCC(=O)Nc1cc(C)on1 (stereo not given)     IC50             13.3 µM
2  O=C(Nc1nc2ccc(C(=O)N3CCCCC3)cc2s1)C1CCCCC1     IC50  15.4 µM (inactive)
3  COc1cc(NC(=O)c2cc3cccc(OC)c3o2)cc(C(=O)Nc2cccc(C(F)(F)F)c2)c1     IC50               12 µM
4  O=C(NC1CCCCC1)C(c1ccccc1)N(Cc1ccc2c(c1)OCO2)C(=O)c1cnsn1 (stereo not given)     IC50  18.7 µM (inactive)
5  O=C(c1ccoc1)N1CCN(c2cc(-c3cccc(F)c3)nc3cc(-c4cccc(Cl)c4)nn23)CC1     IC50  > 25 µM (inactive)

###

tested on: TAG; assay: TAG lipid buildup inhibition with viability readout – cell-based, panel, Nile Red and DAPI fluorescence, H9c2, dose response (AID 651630); settings: H9c2 cells, Nile Red TAG fluorescence, oleic acid, mean of runs;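 also: cells exposed to compound overnight before fixation and staining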
Calls of active or inactive are those of the source.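 The calls were made as follows: active = lipid-stain IC50 at or below a set limit, with nuclear-stain toxicity IC50 at least five times higher; inactive = the rest.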
Labels: active, inactive

> print(dat)
                                   compound       cat
1  COc1cc(-c2cnc3c(NC=O)cc(-c4cccc(NC(C)=O)c4)cn23)cc(OC)c1OC    active
2            O=c1cc(-c2ccccc2)[nH]c2ccccc12    active
3  CCOc1ccc(NC(=O)CN(C)C(=O)c2cc(-c3ccc(OC)cc3)nc3ccccc23)cc1OCC    active
4  CCOC(=O)c1cc(CC)sc1NC(=O)c1cc([N+](=O)[O-])ccc1N1CCOCC1  inactive
5  CCC(C)(C)NC(=O)C(c1cccn1C)N(Cc1ccc(OC)cc1)C(=O)Cn1nnc2ccccc21 (centres undefined)  inactive
6  C=CC[C@@H](CC(=O)N(CCO)Cc1ccccc1)C(=O)N[C@H](COC(=O)[C@@H](CC=C)Cc1ccc(F)cc1)C(C)(C)C    active
7  CCC[C@@H](CN[C@@H](CNC)[C@H](C)CC)NCC1CCC(C(C)(C)C)CC1 (some centres undefined)  inactive
8  COc1ccc(CNC(=O)C2CCN(c3nc(-c4ccccc4)nc4c3CCC4)CC2)cc1    active
9  O=C(Nc1cccc(-c2csc(Nc3cccc(C(F)(F)F)c3)n2)c1)c1cc([N+](=O)[O-])cc(C(F)(F)F)c1  inactive

###

tested on: DAPI; assay: TAG lipid buildup inhibition with viability readout – cell-based, panel, Nile Red and DAPI fluorescence, H9c2, dose response (AID 651630); conditions: H9c2 cells, DAPI nuclear fluorescence (cytotoxicity counter-readout), oleic acid, mean of runs;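 also: cells exposed to compound overnight before fixation and staining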
The source made the active and inactive calls.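 The calls were made as follows: active = lipid-stain IC50 at or below a set limit, with nuclear-stain toxicity IC50 at least five times higher; inactive = the rest.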
readout: IC50 cytotoxicity (DAPI nuclear signal decrease)

> print(dat)
                                    compound  targetofassay            observed
 1  CCCCCC(=O)Nc1nc(C)c(-c2csc(Nc3cc(OC)ccc3OC)n2)s1           DAPI  > 25 µM (inactive)
 2  CCCCCCSc1cc(-c2nc3ccc(Cl)cn3c2NC2CCCCC2)ccc1OC           DAPI  > 25 µM (inactive)
 3  Cc1ccc(NC(=O)c2nc[nH]c2C(=O)NCCCCNC(=O)c2[nH]cnc2C(=O)Nc2ccc(C)cc2)cc1           DAPI  > 25 µM (inactive)
 4         Cc1ccc2[nH]c(-c3ccccc3)cc(=O)c2c1           DAPI  > 25 µM (inactive)
 5  O=C1CCCC2=C1C1(CCCC1)N=C(Nc1nc3cc(-c4ccccc4)ccc3o1)N2           DAPI  > 25 µM (inactive)
 6  Cc1ccc(Cc2nnc(SCC(=O)Nc3ccccc3)n(N)c2=O)cc1           DAPI  > 25 µM (inactive)
 7  COc1cc(CNC(=O)Nc2nc(C(N)Cc3ccc(C(F)(F)F)cc3)cs2)cc(OC)c1OC (stereo unspecified)           DAPI  > 25 µM (inactive)
 8              CC(C)N1CSC(=S)N(Cc2ccccc2)C1           DAPI  > 25 µM (inactive)
 9  COc1ccc2[nH]c(C)c(CCNCc3cn(C)c4ccccc34)c2c1           DAPI  > 25 µM (inactive)
10  CCOC(=O)N1CCN(C(=O)c2ccccc2N(Cc2ccccc2)S(=O)(=O)c2ccc(OC)cc2)CC1           DAPI  > 25 µM (inactive)
11      CCCOC(=O)c1ccc(NC(=O)CCOc2ccccc2)cc1           DAPI  > 25 µM (inactive)
12  c1cc(C2CCCCC2)ccc1Oc1nc(N2CCOCC2)nc(N2CCOCC2)n1           DAPI  > 25 µM (inactive)
13  Cc1cc(C)c(NC(=O)CSc2nc3ccc(NC(=O)CSc4nnnn4Cc4ccccc4)cc3s2)c(C)c1           DAPI  > 25 µM (inactive)
14  O=C(Nc1cccc(-c2csc(Nc3ccc(Cl)cc3)n2)c1)c1cccc(C(F)(F)F)c1           DAPI  > 25 µM (inactive)
15  CC(C)c1ccc(NC(=O)Nc2nc(C(N)C3CCCCC3)cs2)cc1 (stereo unspecified)           DAPI  17.3 µM (inactive)
16  CCCc1[nH]n(-c2ccc([N+](=O)[O-])cc2)c(=O)c1C=NCCc1c[nH]c2ccccc12           DAPI  > 25 µM (inactive)
17  Cc1nn2c(NCc3ccccn3)c3c(nc2c1-c1ccccc1)CCC3           DAPI  > 25 µM (inactive)
18  CN(C)CCNC(=O)c1cccc2ccc(-c3ccc(-c4ccccc4)cc3)nc12           DAPI  > 25 µM (inactive)
19  Cc1cccc2cc(C#N)c(SCC(=O)NNC(=O)Cc3ccccc3)nc12           DAPI  > 25 µM (inactive)
20        O=C(CCl)Nc1cc2[nH]c(=O)[nH]c2cc1Br           DAPI    15 µM (inactive)
21  CC(=O)c1cccc(-c2ccnc3c2CC(C(=O)NCc2ccco2)O3)c1 (stereo unspecified)           DAPI  > 25 µM (inactive)
